Entry source: ChEMBL document CHEMBL1136251

Form field: pIC50 (one value per entry).
target: Plasminogen activator inhibitor 1 (Homo sapiens); experiment: Plasminogen Activator Inhibitor-1 (PAI-1) activity was determined by inhibition of Urokinase-type plasminogen activator using primary assay
Sequence (P05121 whole entry): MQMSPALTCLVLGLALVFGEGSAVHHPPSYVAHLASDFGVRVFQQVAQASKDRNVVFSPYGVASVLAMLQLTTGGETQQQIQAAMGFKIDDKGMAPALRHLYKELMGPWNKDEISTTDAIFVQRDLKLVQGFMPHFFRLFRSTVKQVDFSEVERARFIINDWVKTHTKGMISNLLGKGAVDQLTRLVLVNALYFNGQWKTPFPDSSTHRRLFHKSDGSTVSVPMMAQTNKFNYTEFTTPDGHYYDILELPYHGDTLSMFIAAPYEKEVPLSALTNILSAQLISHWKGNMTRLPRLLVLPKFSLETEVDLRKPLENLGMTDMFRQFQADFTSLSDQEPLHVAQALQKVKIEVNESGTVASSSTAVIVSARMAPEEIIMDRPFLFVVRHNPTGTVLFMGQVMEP
By convention, pIC50 is the negative base-10 log of a molar concentration.

molecule	targetOrSystem	pIC50
CC(C)[C@@H]1CC[C@@H](C)C[C@H]1OCC(=O)Nc1cc(N2CCC(C(=O)O)CC2)ccc1[N+](=O)[O-]	Plasminogen activator inhibitor 1 (Homo sapiens)	6.03
COc1cccc(CNc2ccc(CNC(=O)CO[C@@H]3C[C@H](C)CC[C@H]3C(C)C)cc2)c1Oc1ccc(N)cc1C(=O)O	Plasminogen activator inhibitor 1 (Homo sapiens)	6.15
COc1cc(C(=O)O)c2c(c1C)OC(=O)c1c(C)cc(O)c(CNc3ccc(CNC(=O)CO[C@@H]4C[C@H](C)CC[C@H]4C(C)C)cc3)c1O2	Plasminogen activator inhibitor 1 (Homo sapiens)	5.85

Task: Report pIC50 for `COc1cc(C(=O)O)c2c(c1C)OC(=O)c1c(C)cc(O)c(CNc3ccc(NC(=O)CO[C@@H]4C[C@H](C)CC[C@H]4C(C)C)cc3)c1O2`
Result: 5.96

Task: Give the measured pIC50 for CC(C)[C@@H]1CC[C@@H](C)C[C@H]1OCC(=O)Nc1cc(N2CCCC(C(=O)O)C2)ccc1[N+](=O)[O-] (stereo not given in full)
Result: 6.05
